Origin of measurements: ChEMBL document CHEMBL2016469

# Test system: K562
# Experiment Summary: Cytotoxicity against human K562 cells
# Type: functional, cell-based
Measured Attribute: IC50
Please append the unit to your numeric answer.

Tell me the measured IC50 of COc1ccc(N(C(=O)N(C)C)c2nnc(-c3ccccc3)s2)cc1OC , please.
3000 nM

---

# System: MDA-MB-231
# Experiment Summary: Cytotoxicity against human MDA-MB-231 cells
# Assay type: functional, cell-based
Measured Attribute: pIC50
Notebook: values listed as pIC50 are -log10 of the concentration (mol/L).

API: value(readout=pIC50, system=MDA-MB-231) for record CNC(=O)c1cc(Oc2ccc(NC(=O)Nc3ccc(Cl)c(C(F)(F)F)c3)cc2)ccn1 [SORAFENIB]
5.60

---

# Test system: MCF7
# Experiment Summary: Cytotoxicity against human MCF7 cells after 48 hrs by MTT assay
# Type: functional, cell-based
# Conditions Used: MCF7, 48 h
Measured Attribute: pIC50
Notebook: values listed as pIC50 are -log10 of the concentration (mol/L).

C#CCNC(=O)Nc1cccc(CNCc2ccccc2)c1    3.46
C#CCNC(=O)Nc1cccc(CNCc2ccc(OC)cc2)c1    3.71
C#CCNC(=O)Nc1cccc(COc2ccc(C(=O)OC)cc2)c1    4.13
C#CCNC(=O)Nc1cccc(CNCc2ccc(OC(F)(F)F)cc2)c1    3.55
C#CCNC(=O)Nc1cccc(CNCc2ccc(C)cc2)c1    4.30

Next:
Tell me the measured pIC50 of C#CCNC(=O)Nc1cccc(CCl)c1 , please.
5.83
